# collection of pIC50 values tested on N-methyl-D-aspartate receptor (Rattus norvegicus, UniProt P35439)
Please treat pIC50 as minus the base-10 logarithm of the molar concentration.

Input: Report pIC50 for CC(C)OC(=O)c1n[nH]c2c(=O)[nH]c3cc(Cl)ccc3c(=O)c12 please.
Output: 7.19

Input: Report pIC50 for CCCOC(=O)c1n[nH]c2c(=O)[nH]c3cc(Cl)ccc3c(=O)c12 please.
Output: 7.57
